Target: T1, full length human tau SEQ ID NO: 01 (human, UniProt P10636 1-758)
T1 construct: not phosphorylated; also called tau protein; non-phosphorylated full-length human tau
T1 sequence (P10636 other isoform, or with tags, fused parts or gaps limits assumed): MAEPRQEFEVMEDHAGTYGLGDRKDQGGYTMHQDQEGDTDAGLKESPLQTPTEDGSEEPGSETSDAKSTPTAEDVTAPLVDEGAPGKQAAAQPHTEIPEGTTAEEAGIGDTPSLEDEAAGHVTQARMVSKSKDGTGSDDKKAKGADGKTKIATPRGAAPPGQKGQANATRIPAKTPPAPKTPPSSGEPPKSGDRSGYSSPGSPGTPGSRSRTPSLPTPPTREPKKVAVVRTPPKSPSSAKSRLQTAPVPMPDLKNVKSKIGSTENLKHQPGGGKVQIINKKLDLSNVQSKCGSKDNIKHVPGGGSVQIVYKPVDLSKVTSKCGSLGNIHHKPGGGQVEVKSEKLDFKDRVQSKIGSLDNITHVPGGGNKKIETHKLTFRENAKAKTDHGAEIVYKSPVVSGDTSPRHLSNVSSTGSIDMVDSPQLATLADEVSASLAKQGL
Experiment: ELISA
quantity-measured: OD@1 µg/mL (OD)
Answer format: numeric, OD implied, no suffix.

# count of solved cases: 2
| binder | unit-of-measurement | result-value |
| --- | --- | --- |
| VH35H5/VL31A1 (antibody, V domains shown, IgG captured via anti-human Fc; also called antibody 1) VH: EVQVLESGGGLVQPGGSLRLSCAVSGISLSSNAINWVRQAPGKGLEWVGYIAVSGNTYYASWAKGRFTISRDNSKNTVYLQMNSLRAEDTAVYYCGKSNIWGQGTLVTVSS VL: AQVMTQSPSSLSASVGDRVTITCRSSQSVRNNKLAWFQQKPGQPPKRLIYSASDLDYGVPSRFSGSGSGTEFTLTISSLQPEDFATYYCLGYFDSSADIVAFGGGTKVEIK | OD | 0.04 |
| VH35H5/VL35F2 (antibody, V domains shown, IgG captured via anti-human Fc) VH: EVQVLESGGGLVQPGGSLRLSCAVSGISLSSNAINWVRQAPGKGLEWVGYIAVSGNTYYASWAKGRFTISRDNSKNTVYLQMNSLRAEDTAVYYCGKSNIWGQGTLVTVSS VL: AQVMTQSPSSLSASVGDRVTITCRSSQSVRTNKLAWFQQKPGQPPKRLIYSASTLDFGVPSRFSGSGSGTEFTLTISSLQPEDFATYYCLGYFDSPLDIVAFGGGTKVEIK | OD | 0.04 |

// below: OD@1 µg/mL requested for another binder
Documented OD@1 µg/mL of VH32/VL35G4 (antibody, V domains shown, IgG captured via anti-human Fc) VH: EVQVLESGGGLVQPGGSLRLSCAVSGFSLSSNAINWVRQAPGKGLEWVGYIAVSGNTYYASWAKGRFTISRDNSKNTVYLQMNSLRAEDTAVYYCGKSNIWGQGTLVTVSS VL: AQVMTQSPSSLSASVGDRVTITCRSSQSVRTNKLAWFQQKPGQPPKRLIYSASTLDFGVPSRFSGSGSGTEFTLTISSLQPEDFATYYCAGYFEAPADIVAFGGGTKVEIK : 0.04

This collection of values is drawn from patent US20180079804A1.
